# Tested on: UACC-257 melanoma
# measurement_notes: NCI-60 one-dose screen, 48 h
# condition: 10 µM unless noted
Compounds without any hit were thinned out: in the full panel of roughly 83,000, 20% have a hit. Activity calls are given as the source filed them. How the source made its calls: active means growth percent below 10; inactive means the rest.
Form entry, call: pick from active, inactive

Fill in: this test's call for COC(=O)C[C@@H]1CC=CC(=O)/C1=C(O)/C=C/c1ccccc1 is ___
active

What about this compound? CCCCCCCCCCCCCCCCCC1=NC(C)(C)CN1CCO
active

What about this compound? O=C(Nc1ccccc1Cl)c1cnc2ccc(C3CCNCC3)cn12
inactive

* * *

# Tested on: K-562 leukemia
# measurement_notes: NCI-60 one-dose screen, 48 h (100 = growth as untreated, 0 = no growth, -100 = all killed)
# condition: 10 µM unless noted
This is part of a sample that, as a whole, favours compounds with a hit. Of some 83,000 tested, about 20% had one in any assay.
t means recorded growth is 90% or above; f means it is below 90%.

Does the reported growth for C=C1c2c(C)nn(-c3ccc(C#CCOC4OC(CO)C(O)C(O)C4O)cc3)c2N(C)C23C[C@H]1C1(C)c4c(C)nn(-c5ccc(C#CCOC6OC(CO)C(O)C(O)C6O)cc5)c4N(C)C(C)(C[C@H]12)C3 (some centres undefined) fall at or above the 90% mark?
f

What about this molecule? CCN(CC)CCOc1ccc(C2=C(c3ccccc3)CCc3cc(OC)ccc32)cc1
f

What about this molecule? O=C(c1ccccc1)c1ccccc1Cl
t

What about this molecule? O=C(C(Br)Br)C(Br)C(Br)c1ccccc1 (centres undefined)
f

What about this molecule? O=[N+]([O-])c1ccc2c(c1)S(=O)c1cc([N+](=O)[O-])ccc1N2
t

What about this molecule? O=C(Nc1ccc(C2=NCCCN2)cc1)Nc1ccc(C2=NCCCN2)cc1
f

What about this molecule? Cn1c(=O)c2nc(SCc3ccccc3)n(C)c2n(C)c1=O
t

What about this molecule? Cc1ccc([N+](=O)[O-])cc1NC(=O)Nc1cccc(F)c1
f

What about this molecule? CC(C)COCC(CN(Cc1ccccc1)c1ccccc1)N1CCCC1 (centres undefined)
f

What about this molecule? CCCc1nn(C)c2c(=O)[nH]c(-c3cc(S(=O)(=O)N4CCN(C)CC4)ccc3OCC)nc12
t

What about this molecule? CCC(C)(C)C(=O)O[C@H]1C[C@@H](C)C=C2C=C[C@H](C)[C@H](CC[C@@H]3C[C@@H](O)CC(=O)O3)[C@H]21
f

What about this molecule? Nc1nc(SCc2ccccc2Cl)c(-c2ccccc2)c(SCc2ccccc2Cl)n1
f

What about this molecule? CCOc1ccccc1C(=O)OCC(=O)Nc1cccc(S(=O)(=O)N(C)C)c1
t

What about this molecule? COc1cc(/C=C/C(=O)N2CCN(C(=O)/C=C/c3ccccc3)CC2)cc(OC)c1OC
t

What about this molecule? Cc1ccc(C=C2C(Cl)=C(Cl)C(Cl)=C2Cl)cc1
f

What about this molecule? NS(=O)(=O)c1ccc(NC2=C(Cl)C(=O)c3ccccc3C2=O)cc1
f

What about this molecule? O=C(O)c1ccc(NC(=O)c2cccc(Nc3ccnc(C(F)(F)F)c3)c2)cc1
t

What about this molecule? COc1cc2c(-c3nc4cc(Cl)c(F)cc4s3)cc(=O)oc2c(C)c1OC
f

What about this molecule? CC(C)[C@H]1CC[C@H]2[C@@H](CC[C@H]3[C@](C)(CN)CCC[C@]23C)C1
f

What about this molecule? CSc1nc2c(c(=O)[nH]1)C(c1ccc(Cl)cc1)C1=C(N2)/C(=C/c2ccc(Cl)cc2)CNC1 (centres undefined)
f

What about this molecule? Cc1ccc(NC(=O)COC(=O)c2ccc(S(=O)(=O)N3CCCCCC3)cc2)cc1
t

What about this molecule? CCCCC1Nc2nc(SC)n(C)c(=O)c2CN(Cc2ccccc2)C1=O (centres undefined)
t

What about this molecule? COc1ccc(Cn2cc3c(c2-c2ccccc2)CCc2cncnc2-3)cc1
f

What about this molecule? Clc1cccc(Cc2cn3cc(-c4ccccc4)nc3s2)c1
f

What about this molecule? N#CCCCCCn1c2ccccc2c2c3c(c4c5ccccc5[nH]c4c21)C(=O)N(O)C3=O
f

What about this molecule? NNC(=O)NO
t

What about this molecule? Cc1cc(Cl)ccc1Nc1nc(C(F)(F)F)ccc1C(=O)NCC(=O)N/N=C/c1c(Cl)cccc1Cl
f

What about this molecule? COc1cc(C2=NN(C(C)=O)C(c3ccc(OC(C)=O)cc3OC(C)=O)O2)c(OC(C)=O)c2ccccc12 (centres undefined)
f

What about this molecule? O=C1C(=O)c2ccc(Br)cc2-c2cc(Br)ccc21
f

What about this molecule? CC1=NN(c2ccccc2Cl)C(=O)/C1=C\c1cn(S(=O)(=O)c2ccc(C)cc2)c2ccccc12
t

What about this molecule? CN(CC(=O)N(Cc1ccc(C2CCCCC2)cc1)c1ccc(C(=O)O)cc1)S(=O)(=O)c1c(F)c(F)c(F)c(F)c1F
f

What about this molecule? COc1cc(NC(=O)c2cc3ccccc3cc2O)c(OC)cc1Cl
f
